- Test system: L1210 leukemia ip in BDF1 mice, survival T/C
- procedure_text: NCI In Vivo Anticancer Drug Screen. Data for tumor model L1210 Leukemia (intraperitoneal) in B6D2F1 (BDF1) mice
- experimental_parameters: endpoint: mean survival time; dose: 200.0 mg/kg/injection; schedule: Q04DX002 (ip); vehicle: Klucel (hydroxypropylcellulose) (HPC); higher = longer survival
Inconclusive results and toxic doses are left out.
measured_parameter: T/C

Known T/C results, listed for orientation:
molecule=CNC(=O)Nc1ccc(C(=O)O)cc1 system_name="L1210 leukemia ip in BDF1 mice, survival T/C" measured_value="95 % of control"
molecule=COc1ccc(NC(=O)c2ccc(Cl)cc2Cl)cc1 system_name="L1210 leukemia ip in BDF1 mice, survival T/C" measured_value="104 % of control"
molecule=O=C(Oc1ccc(S(=O)(=O)F)cc1F)c1ccccc1Cl system_name="L1210 leukemia ip in BDF1 mice, survival T/C" measured_value="89 % of control"
molecule=O=S(=O)(CCCl)c1ccc(Br)cc1 system_name="L1210 leukemia ip in BDF1 mice, survival T/C" measured_value="97 % of control"
molecule="COC(=O)C1C2CCC(C2)C1C(=O)OC (centres undefined)" system_name="L1210 leukemia ip in BDF1 mice, survival T/C" measured_value="93 % of control"
molecule=Clc1ccc(/C=N/c2snc3ccccc23)c(Cl)c1 system_name="L1210 leukemia ip in BDF1 mice, survival T/C" measured_value="88 % of control"
molecule=Cc1ccc(N=Nc2ccccn2)cc1 system_name="L1210 leukemia ip in BDF1 mice, survival T/C" measured_value="93 % of control"
molecule="O=[N+]([O-])c1ccc2c(c1)-c1ccccc1C2Br (centres undefined)" system_name="L1210 leukemia ip in BDF1 mice, survival T/C" measured_value="101 % of control"

Now for another entry.
*Q* Provide only the value of recorded T/C for C1=NC(c2ccccc2)=CN(C2CCCC2)C1(c1ccccc1)C1CCCC1 (centres undefined)
*A* 98 % of control

---

- Tested on: L1210 leukemia ip in BDF1 mice, survival T/C
- procedure_text: NCI In Vivo Anticancer Drug Screen. Data for tumor model L1210 Leukemia (intraperitoneal) in B6D2F1 (BDF1) mice
- experimental_parameters: endpoint: mean survival time; dose: 100.0 mg/kg/injection; schedule: Q04DX003 (ip); vehicle: acetone; higher = longer survival
Inconclusive results and toxic doses are left out.
Here, each record is paired with measured T/C data.

Check out these entries, answers already filled in.
molecule="O=S1(=O)C(Cl)=C(Cl)C2C3CC(C(Cl)C3Cl)C21 (configuration not stated)" system_name="L1210 leukemia ip in BDF1 mice, survival T/C" measured_value="92 % of control"
molecule=N#CCCCI system_name="L1210 leukemia ip in BDF1 mice, survival T/C" measured_value="100 % of control"
molecule="O=C(NC1CCC(C(=O)O)CC1)OCc1ccccc1 (configuration not stated)" system_name="L1210 leukemia ip in BDF1 mice, survival T/C" measured_value="96 % of control"

*Q* Input "O=S(=O)(/C=C/c1ccccc1)Oc1ccc(-c2ccccc2)cc1" , output reported T/C.
*A* 97 % of control

*Q* Specify reported T/C for the molecule shown: O=C1c2ccccc2CCC12OC2c1ccccc1[N+](=O)[O-] (configuration not stated)
*A* 98 % of control

*Q* Check the records and state T/C for "c1ccc2c(SCCC3CCCCC3)nnnc2c1"
*A* 89 % of control

*Q* For the molecule "CNC/C(C)=C/Br" , report T/C.
*A* 101 % of control
